experiment: chemical genetic growth profiling, strain panel (AID 1159580);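 also: tested at 20 µM; growth read once vehicle control cultures reached saturation at 30 °C; lower values mean less growth of the strain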; conditions: S. cerevisiae deletion strains, growth OD, locus YCL061C, strain MRC1
About 2,000 (36%) of roughly 5,500 compounds were called active. About 18% were inconclusive and are not listed. Rule as the data show it: active = normalized growth mostly below about 0.91 (no sharp cut-off); inconclusive = no clear call, values can overlap the other calls; inactive = mostly above about 0.92. The list shows a part of the results.
Classes used: t = active, f = inactive

[
  {
    "COMPOUND": "CCCCCC(=O)O[C@]1(C(C)=O)CCC2C3CCC4=CC(=O)CC[C@]4(C)C3CC[C@@]21C (stereo partly drawn)",
    "CATEGORY": "f"
  },
  {
    "COMPOUND": "CC[C@H]1OC(=O)C[C@@H](O)[C@H](C)[C@@H](O[C@@H]2O[C@H](C)[C@@H](O[C@H]3C[C@@](C)(O)[C@@H](O)[C@H](C)O3)[C@H](N(C)C)[C@H]2O)[C@@H](CC=O)C[C@@H](C)C(=O)/C=C/C(C)=C/[C@@H]1CO[C@@H]1O[C@H](C)[C@@H](O)[C@@H](OC)[C@H]1OC",
    "CATEGORY": "f"
  },
  {
    "COMPOUND": "c1ccc(CC2=NCCN2)cc1",
    "CATEGORY": "f"
  },
  {
    "COMPOUND": "COc1ccc(C(=O)c2ccccc2)c(O)c1",
    "CATEGORY": "t"
  },
  {
    "COMPOUND": "COc1ccc2c(c1)C1(C)CCC(=O)CC1CC2 (stereo not drawn)",
    "CATEGORY": "f"
  },
  {
    "COMPOUND": "COc1ccc2c(c1)[C@@]1(C)CCC(=O)C[C@H]1CC2",
    "CATEGORY": "f"
  },
  {
    "COMPOUND": "COc1ccccc1C1CCN(C(=O)c2ccc(F)cc2)CC1",
    "CATEGORY": "f"
  },
  {
    "COMPOUND": "NC[C@@H]1O[C@H](O[C@@H]2[C@@H](CO)OC(O[C@@H]3[C@@H](O)[C@H](N)C[C@H](N)[C@H]3OC3O[C@H](CN)[C@@H](O)[C@H](O)[C@H]3N)[C@@H]2O)[C@H](N)[C@@H](O)[C@@H]1O (stereo partly drawn)",
    "CATEGORY": "f"
  },
  {
    "COMPOUND": "CO[C@H]1C[C@H](O[C@H]2[C@H](C)[C@@H](OC3O[C@H](C)C[C@H](N(C)C)[C@H]3O)[C@@H](C)C[C@]3(CO3)C(=O)[C@H](C)[C@@H](O)[C@@H](C)[C@@H](C)OC(=O)[C@@H]2C)O[C@@H](C)[C@@H]1O (stereo partly drawn)",
    "CATEGORY": "f"
  },
  {
    "COMPOUND": "COc1ccc2cc1Oc1ccc(cc1)C[C@H]1c3c(cc4c(c3Oc3cc5c(cc3OC)CCN(C)[C@@H]5C2)OCO4)CCN1C",
    "CATEGORY": "f"
  },
  {
    "COMPOUND": "CC[C@@H](CO)NCCN[C@@H](CC)CO",
    "CATEGORY": "f"
  },
  {
    "COMPOUND": "CNC1(C)C2CCC(C2)C1(C)C (stereo not drawn)",
    "CATEGORY": "f"
  },
  {
    "COMPOUND": "COc1ccc(-c2cc(=O)c3c(O)cc(OC)c(OC)c3o2)c(OC)c1",
    "CATEGORY": "f"
  },
  {
    "COMPOUND": "CC(=O)[C@H]1CCC2C3C[C@H](C)C4=CC(=O)CC[C@]4(C)C3[C@@H](O)C[C@@]21C (stereo partly drawn)",
    "CATEGORY": "f"
  },
  {
    "COMPOUND": "CCCCOc1ccc(C(=O)CCN2CCCCC2)cc1",
    "CATEGORY": "t"
  },
  {
    "COMPOUND": "OC(CCN1CCCCC1)(c1ccccc1)c1ccccc1",
    "CATEGORY": "f"
  },
  {
    "COMPOUND": "CN1CCc2cc3c(cc2C1O)OCO3 (stereo not drawn)",
    "CATEGORY": "f"
  },
  {
    "COMPOUND": "CC(=O)O[C@]1(C(C)=O)CCC2C3C[C@H](C)C4=CC(=O)CC[C@]4(C)C3CC[C@@]21C (stereo partly drawn)",
    "CATEGORY": "f"
  }
]

Cited source for all entries: PubChem BioAssay AID1159580
